Documented IC50 across a set of compounds
- Tested on: IL-2 production
- procedure.details: Inhibition of IL-2 production in PHA-activated Jurkat cells (ELISA)
- Assay type: cell-based
- run.conditions: Homo sapiens, Jurkat, 20 h, PHA 2.5 μg/mL, IL-2 ELISA

compound	IC50
CCC(=O)c1nc(NC(=O)c2c(F)cccc2F)sc1-c1cccc(C(F)(F)F)c1 [Compound 94]	50 to 100 nM
CC(=O)c1nc(NC(=O)c2c(F)cccc2F)sc1-c1cccc(C(F)(F)F)c1 [Compound 84]	200 to 500 nM
O=C(Nc1c(F)cccc1F)c1cnc(-c2cccc(C(F)(F)F)c2)s1 [Compound 123]	> 1000 nM

What IC50 value was documented for this compound, O=C(Nc1nc(CCl)c(-c2cccc(C(F)(F)F)c2)s1)c1c(F)cccc1F [Compound 70] ? > 1000 nM

What IC50 value was documented for this compound, N#Cc1nc(NC(=O)c2c(F)cccc2F)sc1-c1cccc(C(F)(F)F)c1 [Compound 73] ? 200 to 500 nM

What IC50 value was documented for this compound, O=C(Nc1nc(-c2cc[nH]n2)c(-c2cccc(C(F)(F)F)c2)s1)c1c(F)cccc1F [Compound 100] ? 200 to 500 nM

What IC50 value was documented for this compound, O=C(Nc1nc(C(O)c2ccccn2)c(-c2cccc(C(F)(F)F)c2)s1)c1c(F)cccc1F (centres unmarked) [Compound 83] ? > 1000 nM

What IC50 value was documented for this compound, O=C(Nc1nnc(-c2cc(C(F)(F)F)ccc2Cl)s1)c1c(F)cccc1F [Compound 44] ? > 1000 nM
